tested on: NCI-H460 lung; test: NCI tumour cell line growth inhibition, 48 h
Where a SMILES comes first, the peptide text is derived from it.
experimental endpoint: TGI

Some molecules with known TGI results, for comparison:
Return reported TGI; argument: `CCOC(=O)/C(=C/c1ccc([N+](=O)[O-])cc1)C(=O)c1ccccc1`
7.15 µM

Entry CC(C)CC(NC(=O)C(CC(C)C)NC(=O)C(Cc1cnc[nH]1)NC(=O)C(C)NC(=O)C(NC(=O)C(C)NC(=O)C(Cc1c[nH]c2ccccc12)NC(=O)C(CCC(=O)O)NC(=O)C(N)Cc1ccccc1)C(C)C)C(N)=O (stereo unspecified) (H-FEWAVAHLL-NH2; configuration not given here) : reported TGI = ?
> 100 µM

I'd like to know its TGI. The molecule in question is `Cc1ccc(S(=O)(=O)/N=c2\ssc(Nc3ccccc3)c2Cl)cc1`
19.6 µM

Look at this molecule and give its reported TGI. CCOC(=O)C1CCn2c(nc3c2c(=O)n(C)c(=O)n3C)S1 (stereo unspecified)
> 100 µM

Endpoint output: TGI of CN1C2CCC1C(C(O)c1ccccc1[N+](=O)[O-])C(=O)C2 (stereo unspecified) . Value?
> 100 µM

Please look up its TGI: O=C(O)C(Cc1c[nH]c2ccccc12)N=Cc1nc(-c2ccccc2)oc1O (stereo unspecified)
> 100 µM

Can you look up the measured TGI of `CCOC(=O)c1ccc(N(CCOS(C)(=O)=O)CCOS(C)(=O)=O)cc1C` for me?
> 100 µM

Any idea what its TGI is? The molecule is OCC1NCC(O)C(O)C1O (stereo unspecified)
> 100 µM

Data request, read-out TGI, for C=C[C@]1(C)CCC2=C(CCC3C2(C)CCC[C@]3(C)CO)C1 (stereo partly specified)
> 100 µM

Requested read-out: TGI. Entry: COc1ccc(NC(=O)C(=O)C2CNC(=O)NC2=O)c(OC)c1 (stereo unspecified)
> 100 µM

---
Returns the measured TGI for the input molecule. Input: CC(=O)NC(CCCCNC(=O)N(CCCl)N=O)C(=O)NCc1ccccc1 (stereo unspecified)
> 100 µM

What value of TGI has been reported for the following molecule? `COc1ccc(-c2nn(-c3cccc(NC(=O)Nc4ccc(Cl)c(C(F)(F)F)c4)c3)cc2-c2ccncc2)cc1Cl`
8.99 µM

Which TGI is reported for this molecule? CC1(C)CCC2(C(=O)OC3OC(CO)C(O)C(O)C3O)CCC3(C)C(=CCC4C5(C)CCC(OC6OC(CO)C(O)C(O)C6O)C(C)(C)C5CCC43C)C2C1 (stereo unspecified)
> 25 µM

Any idea what TGI was measured for `COc1[nH]c(C(Cl)(Cl)Cl)c(Cl)c(=O)c1Cl` ?
> 100 µM

Which TGI value is on record for O=C1c2cccnc2S(=O)N1Cc1ccccc1 (stereo unspecified) ?
> 100 µM

Give the measured TGI of `CN(/N=C/c1cccs1)c1ccc(Cl)cc1[N+](=O)[O-]` .
> 100 µM

State the recorded TGI for this entry: `Oc1c2cc(Br)cc1CCc1cc(Br)cc(c1O)CC2`
39.4 µM

Which TGI is reported for this molecule? CC(=O)OC1CC(O)CC2=CCC3C4CCC(C(C)(O)C(O)CC5COC(=O)C5C)C4(C)CCC3C21C (stereo unspecified)
> 25 µM

Need TGI of `CC(=O)O[C@H]1C(=O)O[C@@H]2C[C@H]3C(C)=CC(=O)[C@@H](O)[C@]3(C)[C@H]3[C@@]4(O)OC[C@]32[C@@H]1[C@@H](C)[C@H]4O` , thanks.
0.187 µM

What value of TGI has been reported for the following molecule? `CC1(C)CC[C@]2(C(=O)O)CC[C@]3(C)C(=CC[C@@H]4[C@@]5(C)C[C@H](O)[C@H](O)[C@@](C)(CO)C5=CC[C@]43C)[C@@H]2C1`
72.2 µM

Recorded TGI for `CC(=O)N(C)c1ccc2c(ccc[n+]2[O-])c1[N+](=O)[O-]` , please?
> 100 µM

Using the record for `Cc1cccc(N=Nc2c(C)nn(C(=O)CC(=O)Nc3ccccc3)c2C)c1` , report its TGI.
> 100 µM

Reported TGI for `Cc1cc2c(cc1Cl)SC(N/N=C(\N)c1ccc(Cl)cc1)=NS2(=O)=O` : what is it?
> 100 µM

Given the molecule `Cc1c2c(nn1C(=O)c1nn(-c3ccc(Cl)cc3)cc1O)-c1ccccc1CC2` , what is its reported TGI?
0.0613 µM

Look at this molecule and give its reported TGI. COC(=O)C1C(C)N1C (stereo unspecified)
> 100 µM

Entry `N#CC(=S)Nc1ccc(Cl)c(Cl)c1` has what TGI?
> 100 µM

TGI lookup needed for `COc1ccc(/C=C(\C#N)c2nc(N)nc(N3N=C(C)CC3(C)C)n2)c(O)c1` , thanks.
38.2 µM
